# Test system: Escherichia coli K-12 ML 1629
# Assay Name: Minimum inhibitory concentration, serial dilution on nutrient agar
# Format: cell-based
# Conditions Used: K12ML1629, 37° C., 18 hours, read-out: Minimum Inhibitory Concentrations
Reported MIC by item:
Test Readout: MIC (µg/mL)

INSERT INTO assay_data (compound, test_readout, quantitative_readout) VALUES
  ('NCCC(O)C(=O)NC1CC(N)C(OC2OC(CO)CCC2N)C(O)C1OC1OC(CO)C(O)C(N)C1O (stereo not shown)', 'MIC', 6.25),
  ('NCC[C@H](O)C(=O)N[C@@H]1C[C@H](N)[C@@H](O[C@H]2O[C@H](CN)[C@@H](O)[C@H](O)[C@H]2O)[C@H](O)[C@H]1O[C@H]1O[C@H](CO)[C@@H](O)[C@H](N)[C@H]1O [Amikacin, reference compound]', 'MIC', 0.78),
  ('NCCC(O)C(=O)NC1CC(N)C(OC2OC(CO)C(O)CC2N)C(O)C1OC1OC(CO)C(O)C(N)C1O (stereo not shown)', 'MIC', 6.25),
  ('NCCC(O)C(=O)NC1CC(N)C(OC2OC(CO)C(O)C(O)C2N)C(O)C1OC1OC(CO)C(O)C(N)C1O (stereo not shown)', 'MIC', 6.25);

###

# System: Escherichia coli K-12 ML 1410
Reported MIC by item:
Test Readout: MIC (µg/mL)

INSERT INTO measurements (compound, test_readout, unit_spec, quantitative_readout) VALUES
  ('NCC[C@H](O)C(=O)N[C@@H]1C[C@H](N)[C@@H](O[C@H]2O[C@H](CN)[C@@H](O)[C@H](O)[C@H]2O)[C@H](O)[C@H]1O[C@H]1O[C@H](CO)[C@@H](O)[C@H](N)[C@H]1O [Amikacin, reference compound]', 'MIC', 'µg/mL', 0.78),
  ('NCCC(O)C(=O)NC1CC(N)C(OC2OC(CO)C(O)CC2N)C(O)C1OC1OC(CO)C(O)C(N)C1O (stereo not shown) [AHB-DKC]', 'MIC', 'µg/mL', 6.25),
  ('NCCC(O)C(=O)NC1CC(N)C(OC2OC(CO)CCC2N)C(O)C1OC1OC(CO)C(O)C(N)C1O (stereo not shown) [AHB-DDKC]', 'MIC', 'µg/mL', 25),
  ('NCCC(O)C(=O)NC1CC(N)C(OC2OC(CO)C(O)C(O)C2N)C(O)C1OC1OC(CO)C(O)C(N)C1O (stereo not shown) [AHB-KC]', 'MIC', 'µg/mL', 25);

###

# System: Pseudomonas aeruginosa GN 315
# Assay Name: Minimum inhibitory concentration, serial dilution on nutrient agar
# Format: cell-based
# Conditions Used: GN315, 37° C., 18 hours, read-out: Minimum Inhibitory Concentrations
Reported MIC by item:
Test Readout: MIC (µg/mL)

INSERT INTO measurements (compound, quantitative_readout) VALUES
  ('NCCC(O)C(=O)NC1CC(N)C(OC2OC(CO)C(O)CC2N)C(O)C1OC1OC(CO)C(O)C(N)C1O (stereo not shown)', 50),
  ('NCCC(O)C(=O)NC1CC(N)C(OC2OC(CO)CCC2N)C(O)C1OC1OC(CO)C(O)C(N)C1O (stereo not shown)', 100),
  ('NCCC(O)C(=O)NC1CC(N)C(OC2OC(CO)C(O)C(O)C2N)C(O)C1OC1OC(CO)C(O)C(N)C1O (stereo not shown)', 50),
  ('NCC[C@H](O)C(=O)N[C@@H]1C[C@H](N)[C@@H](O[C@H]2O[C@H](CN)[C@@H](O)[C@H](O)[C@H]2O)[C@H](O)[C@H]1O[C@H]1O[C@H](CO)[C@@H](O)[C@H](N)[C@H]1O [Amikacin, reference compound]', 100);

###

// values below are MIC; system is Escherichia coli K-12 ML 1410 R81
Test Readout: MIC (µg/mL)

INSERT INTO results (compound, test_readout, unit_spec, quantitative_readout) VALUES
  ('NCC[C@H](O)C(=O)N[C@@H]1C[C@H](N)[C@@H](O[C@H]2O[C@H](CN)[C@@H](O)[C@H](O)[C@H]2O)[C@H](O)[C@H]1O[C@H]1O[C@H](CO)[C@@H](O)[C@H](N)[C@H]1O [Amikacin, reference compound]', 'MIC', 'µg/mL', 1.56),
  ('NCCC(O)C(=O)NC1CC(N)C(OC2OC(CO)C(O)CC2N)C(O)C1OC1OC(CO)C(O)C(N)C1O (stereo not shown)', 'MIC', 'µg/mL', 12.5),
  ('NCCC(O)C(=O)NC1CC(N)C(OC2OC(CO)CCC2N)C(O)C1OC1OC(CO)C(O)C(N)C1O (stereo not shown)', 'MIC', 'µg/mL', 25),
  ('NCCC(O)C(=O)NC1CC(N)C(OC2OC(CO)C(O)C(O)C2N)C(O)C1OC1OC(CO)C(O)C(N)C1O (stereo not shown)', 'MIC', 'µg/mL', 12.5);

###

Reported MIC by item:
# Test system: Staphylococcus aureus FDA 209P
# Assay Name: Minimum inhibitory concentration, serial dilution on nutrient agar
# Assay type: cell-based
# Conditions Used: FDA209P, 37° C., 18 hours, read-out: Minimum Inhibitory Concentrations
Test Readout: MIC (µg/mL)

INSERT INTO measurements (molecule, quantitative_readout) VALUES
  ('NCCC(O)C(=O)NC1CC(N)C(OC2OC(CO)C(O)CC2N)C(O)C1OC1OC(CO)C(O)C(N)C1O (stereo not shown)', 6.25),
  ('NCC[C@H](O)C(=O)N[C@@H]1C[C@H](N)[C@@H](O[C@H]2O[C@H](CN)[C@@H](O)[C@H](O)[C@H]2O)[C@H](O)[C@H]1O[C@H]1O[C@H](CO)[C@@H](O)[C@H](N)[C@H]1O [Amikacin, reference compound]', 0.39),
  ('NCCC(O)C(=O)NC1CC(N)C(OC2OC(CO)CCC2N)C(O)C1OC1OC(CO)C(O)C(N)C1O (stereo not shown)', 12.5),
  ('NCCC(O)C(=O)NC1CC(N)C(OC2OC(CO)C(O)C(O)C2N)C(O)C1OC1OC(CO)C(O)C(N)C1O (stereo not shown)', 6.25);

###

// values below are MIC; system is Escherichia coli K-12 R5
Test Readout: MIC (µg/mL)

INSERT INTO assay_data (compound, test_readout, unit_spec, quantitative_readout) VALUES
  ('NCC[C@H](O)C(=O)N[C@@H]1C[C@H](N)[C@@H](O[C@H]2O[C@H](CN)[C@@H](O)[C@H](O)[C@H]2O)[C@H](O)[C@H]1O[C@H]1O[C@H](CO)[C@@H](O)[C@H](N)[C@H]1O [Amikacin, reference compound]', 'MIC', 'µg/mL', 0.39),
  ('NCCC(O)C(=O)NC1CC(N)C(OC2OC(CO)C(O)CC2N)C(O)C1OC1OC(CO)C(O)C(N)C1O (stereo not shown) [AHB-DKC]', 'MIC', 'µg/mL', 6.25),
  ('NCCC(O)C(=O)NC1CC(N)C(OC2OC(CO)C(O)C(O)C2N)C(O)C1OC1OC(CO)C(O)C(N)C1O (stereo not shown) [AHB-KC]', 'MIC', 'µg/mL', 6.25),
  ('NCCC(O)C(=O)NC1CC(N)C(OC2OC(CO)CCC2N)C(O)C1OC1OC(CO)C(O)C(N)C1O (stereo not shown) [AHB-DDKC]', 'MIC', 'µg/mL', 12.5);

Values from patent US4140849A
